Tested on: HepG2 cells
experimentDescription: HepG2 cytotoxicity assay
testContext: HepG2 values of the three screens unified
observationType: Unified cytotox (µM)

COc1ccc2nccc(N3CCC(CCNCc4ccc5c(n4)NC(=O)CS5)CC3)c2n1.Cl; 14.79
O=C(Nc1ccc(Cl)cc1)c1cc(Cl)cc2nc(C(F)(F)F)[nH]c12; 2.43
Cc1[nH]c(C)c(-c2ccc(OCc3cc(F)cc(F)c3)nc2)c(=O)c1Br; 25.41
Cc1[nH]c(C)c(-c2ccc(OCc3ccc(F)cc3)nc2)c(=O)c1Br; 100.00
CCCN1CCN(CCCCNc2c3ccccc3nc3ccccc23)CC1.Cl; 5.37
CCOCn1c(-c2ccccc2)cc2c3c(N)nc(N)nc3ccc21; 5.22
CCc1cc2c3c(N)nc(N)nc3ccc2n1C(C)(C)C; 0.0017
COc1ccc2ncc(C)c(CCN3CCC(NCc4ccc5c(n4)NC(=O)CS5)CC3)c2c1.Cl; 34.67

###

Reported Unified cytotox by item:
Tested on: HepG2 cells
experimentDescription: HepG2 cytotoxicity assay
testContext: HepG2 values of the three screens unified
observationType: Unified cytotox (µM)

Cc1[nH]c(C)c(-c2ccc(-c3ccc(OC(F)(F)F)cc3)cc2)c(=O)c1Cl [TCMDC-136060]; 64.57
Cc1[nH]c(C)c(-c2ccc(-c3ccc(F)cc3)nc2)c(=O)c1Br [TCMDC-135925]; 33.11
Cc1[nH]c(C)c(-c2ccc(OCc3ccccc3C(F)(F)F)nc2)c(=O)c1Br [TCMDC-135796]; 3.02
Cc1nc(C)c(-c2ccc(Oc3ccc(Cl)c(Cl)c3)cc2)c(O)c1Br [TCMDC-137397]; 19.50
Nc1nc(N)c2c(ccc3c2ccn3Cc2ccc3c(c2)OCO3)n1 [TCMDC-137808]; 0.0324
Cc1nc(C)c(-c2ccc(Oc3cc(Cl)cc(Cl)c3)cc2)c(O)c1Br [TCMDC-137392]; 19.95
Cc1[nH]c2ccccc2c1C(=O)C(C)Sc1n[nH]c(-c2ccccc2Br)n1 (centres unmarked) [TCMDC-125114]; 74.66
COc1ccc2nccc([C@@H](O)CN3CCC(NCCOc4ccc(F)cc4Cl)CC3)c2c1.O=C(O)C(=O)O [TCMDC-140660]; 32.36
CCC(CC)n1c(C)cc2c3c(N)nc(N)nc3ccc21 [TCMDC-137283]; 0.0017
CN(CCCNCc1ccc2ccccc2c1)CCCNCc1ccc2ccccc2c1.Cl [TCMDC-137908]; 4.85
COc1ccc(Cn2ccc3c4c(N)nc(N)nc4ccc32)cc1 [TCMDC-139862]; 0.011

###

System: HepG2 cells
experimentDescription: HepG2 cytotoxicity assay
testContext: read-out: HepG2 cytotoxicity assay IC50; dose response confirmation
pIC50: −log10 of the molar value.
observationType: pIC50

Cc1cc(F)ccc1-c1nc(NCCCNCCc2ccccc2)nc2c1ccc(=O)n2-c1c(F)cccc1F.O=C(O)C(F)(F)F; 4.94
Cc1[nH]c(C)c(-c2ccc(-c3ccc(OC(F)(F)F)cc3)cc2)c(=O)c1Br; 5.11
CC(C)(C)CNCC(C)(C)c1nc(-c2ccc(Cl)c(O)c2)c(-c2ccncc2)[nH]1.Cl; 4.92

###

Test system: HepG2 cells
experimentDescription: HepG2 cytotoxicity assay
testContext: read-out: HepG2 cytotoxicity assay IC50; dose response confirmation
pIC50: −log10 of the molar value.
observationType: pIC50

CCC(CC)n1c(COC)cc2c3c(N)nc(N)nc3ccc21; 8.77
CC1CN(Cc2ccc(-c3ccc(-c4nc5ccccc5[nH]4)cc3)cc2)CC(C)O1.O=C(O)C(F)(F)F (centres unmarked); 4.52
CS(=O)(=O)Cc1cccc(Nc2ncc(Cl)c(Nc3cccnc3C(N)=O)n2)c1.Cl; 5.32
C=CCC1OC(=O)c2cc(OC)cc(OC)c21 (centres unmarked); 5.59
Nc1c2ccccc2nc2ccc(Cl)cc12; 4.87
O=C(Nc1nc(-c2ccccn2)cs1)c1ccc(S(=O)(=O)N2CCc3ccccc32)cc1; 5.37
Cc1[nH]c(C)c(-c2ccc(-c3ccc(OC(F)(F)F)cc3)nc2)c(=O)c1Cl; 4.63
Cc1c2ccncc2c(C)c2c1[nH]c1ccccc12; 4.82
